A collection of binders and their measured OD value
Biological target: T1, recombinant human regenerating islet-derived protein 1α (REG1A) (human, UniProt P05451 23-166, limits assumed)
T1 construct: also called recombinant human REG1A; recombinant REG1A
T1 sequence (looked up): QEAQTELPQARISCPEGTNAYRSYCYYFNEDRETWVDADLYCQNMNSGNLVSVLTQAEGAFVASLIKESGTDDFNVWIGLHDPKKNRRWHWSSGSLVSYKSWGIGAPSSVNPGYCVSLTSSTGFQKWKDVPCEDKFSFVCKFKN
Experiment: sandwich ELISA; capture 25F3C4; REG1A 100.00 ng/mL
Respond with the bare value in OD.

binder | output.unit | OD value
antibody 11D11B11 (antibody, mouse IgG2a, kappa, V domains shown, Mouse monoclonal from hybridoma, stated mouse IgG1/Kappa; Used unlabelled as capture and biotin-labelled as detection antibody; also called 11D11B11-biotin) VH: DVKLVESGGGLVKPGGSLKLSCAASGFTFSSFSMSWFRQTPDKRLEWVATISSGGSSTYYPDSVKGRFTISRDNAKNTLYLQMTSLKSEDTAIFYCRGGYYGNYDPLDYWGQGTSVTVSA VL: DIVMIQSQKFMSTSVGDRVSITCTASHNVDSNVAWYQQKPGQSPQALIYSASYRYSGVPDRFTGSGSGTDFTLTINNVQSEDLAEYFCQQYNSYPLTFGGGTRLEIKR | OD | 0.089
antibody 12F12A10 (antibody, V domains shown, Mouse monoclonal from hybridoma, stated mouse IgG1/Kappa; also called 12F12A10-biotin; Antibody 2) VH: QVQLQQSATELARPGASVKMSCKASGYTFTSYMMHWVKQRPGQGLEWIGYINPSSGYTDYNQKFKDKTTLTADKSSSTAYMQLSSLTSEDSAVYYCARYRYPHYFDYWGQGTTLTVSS VL: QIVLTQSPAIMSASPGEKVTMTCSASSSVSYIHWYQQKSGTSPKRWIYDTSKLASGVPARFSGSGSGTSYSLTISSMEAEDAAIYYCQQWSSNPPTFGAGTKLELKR | OD | 4.48
antibody 4H8F1 (antibody, V domains shown, Mouse monoclonal from hybridoma, stated mouse IgG1/Kappa; also called 4H8F1-biotin; Antibody 1) VH: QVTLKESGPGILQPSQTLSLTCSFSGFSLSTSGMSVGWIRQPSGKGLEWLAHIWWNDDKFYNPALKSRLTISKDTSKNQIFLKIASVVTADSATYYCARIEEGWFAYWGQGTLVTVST VL: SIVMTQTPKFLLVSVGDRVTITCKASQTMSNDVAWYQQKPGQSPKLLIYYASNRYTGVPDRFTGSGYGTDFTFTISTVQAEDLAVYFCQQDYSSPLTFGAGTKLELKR | OD | 0.086

Consider the binder antibody 21B11D2 (antibody, mouse IgG2b, kappa, V domains shown, Mouse monoclonal from hybridoma, stated mouse IgG1/Kappa; Used unlabelled as capture and biotin-labelled as detection antibody; also called 21B11D2-biotin) VH: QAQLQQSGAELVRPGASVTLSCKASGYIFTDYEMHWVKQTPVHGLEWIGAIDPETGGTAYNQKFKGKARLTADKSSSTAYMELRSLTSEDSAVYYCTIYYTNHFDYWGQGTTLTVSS VL: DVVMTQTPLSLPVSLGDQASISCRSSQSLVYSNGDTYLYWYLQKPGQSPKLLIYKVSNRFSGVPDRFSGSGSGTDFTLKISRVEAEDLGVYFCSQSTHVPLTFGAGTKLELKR and give its measured OD value.
0.073
